Tested on: SK-MEL-28 melanoma
Procedure details: NCI tumour cell line growth inhibition, 48 h
Parameter measured: TGI

Examples from the recorded data:
O=C1c2ccccc2C(=O)c2[nH]c(=O)c(/C=N/Nc3ccc([N+](=O)[O-])cc3)nc21
> 30.5 µM
N#C/C(=C\N1CCNC1=S)C(=O)c1ccc2ccccc2c1
> 100 µM
COc1cc([N+](=O)[O-])c(S(=O)(=O)O)cc1-n1nc(-c2ccccc2)n[n+]1-c1cc(S(=O)(=O)[O-])c([N+](=O)[O-])cc1OC
> 100 µM

Provide the reported TGI of each entry below, same order.
1. COC(=O)c1c(C)cccc1C1CN=NC12Cc1c(C)cccc1C2=O (stereo not drawn)
2. CN(C)CCNc1ccc2nnn3c4ccc(Cl)cc4c(=O)c1c23
3. COC(=O)c1c(C(=O)OC)c(C(=O)OC)c(C(=O)OC)c1C(=O)OC
4. CN(C)c1ncc(-c2c[nH]c3ccccc23)nc1-c1c[nH]c2ccccc12
5. CN1C(=O)NC2(O)c3ccccc3C(=O)C12O (stereo not drawn)

// result
1: > 100 µM; 2: 18 µM; 3: > 100 µM; 4: 5.73 µM; 5: > 100 µM
